Answer each item with its documented activation.
run-description: counter-screen for M1 agonists: effect in parental CHO-K1 cells (AID 602248);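 further: untransfected CHO-K1 host cells lacking M1 receptor as counterscreen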
particulars: Fluo-8 calcium fluorescence, at 3 µM, stronger effect = higher value, scaled to maximal ATP response, vehicle zero
The whole screen tested about 360,000 compounds, of which about 1,700 (0.47%) were called active. What follows is part of a selection rich in actives, with near analogues and random picks from the rest.
The figure you give is taken to be in %; do not add the unit.

(Q) Give the reported value of activation for this record: CCCCC(=O)NCc1ccc(F)cc1
(A) -0.33

(Q) Give the reported value of activation for this record: Cc1ccc(NS(=O)(=O)c2cn(C)c(=O)n(C)c2=O)c(C)c1
(A) 0.05

(Q) Give the reported value of activation for this record: CCSC1=NCCN1S(=O)(=O)c1ccc(F)cc1
(A) 0.73

(Q) Give the reported value of activation for this record: CCNC(=O)C1(C)CCN(C(=O)c2ccccc2)C1 (configuration not stated)
(A) -0.33

(Q) Give the reported value of activation for this record: Oc1ccccc1N1CCN(c2ncnc3sc(-c4ccccc4)cc23)CC1
(A) 18.6

(Q) Give the reported value of activation for this record: Cc1cccc(C(=O)OCC(=O)Nc2sccc2C(N)=O)c1C
(A) -0.07

(Q) Give the reported value of activation for this record: O=C(NCCc1ccccn1)c1cc(C(=O)C2CCCCC2)c[nH]1
(A) 0.74

(Q) Give the reported value of activation for this record: CCSc1nc2sc3c(c2c(=O)[nH]1)CC(C)(C)OC3
(A) 0.45

(Q) Give the reported value of activation for this record: O=C(O)C(NS(=O)(=O)c1cccc2nsnc12)c1ccccc1 (configuration not stated)
(A) 0.41

(Q) Give the reported value of activation for this record: Cc1cc(C)c(/C=C2\C(=O)Nc3ccccc32)[nH]1
(A) 24.4

(Q) Give the reported value of activation for this record: COC(=O)c1c(C)c(C)nc(N)c1C#N
(A) 0.12

(Q) Give the reported value of activation for this record: COc1ccccc1N1CCN(c2ncnc3sc(C)c(-c4ccccc4)c23)CC1
(A) 0.5

(Q) Give the reported value of activation for this record: COC(=O)[C@@H]1C[C@@]2(O)[C@H](O)[C@H](O)[C@H](O)C[C@H]2N1Cc1ccc(C)s1
(A) 0.11

(Q) Give the reported value of activation for this record: CN(C(=O)COC(=O)c1ccc(Br)o1)c1c(N)n(Cc2ccccc2)c(=O)[nH]c1=O
(A) 2.4

(Q) Give the reported value of activation for this record: COc1c(N2CCN(C(=S)Nc3ccccc3F)C(C)C2)c(F)cc2c(=O)c(C(=O)O)cn(C3CC3)c12 (configuration not stated)
(A) 0.37

(Q) Give the reported value of activation for this record: CS(=O)(=O)N(CC(=O)Nc1ccc(F)cc1F)c1cccc([N+](=O)[O-])c1
(A) 0.11

(Q) Give the reported value of activation for this record: O=C(CCN1C(=O)COc2ccccc21)NCCCN1CCN(c2ccc(F)cc2)CC1
(A) 0.21

* * *

run-description: counter-screen for M1 agonists: effect in parental CHO-K1 cells (AID 602248);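 further: untransfected CHO-K1 host cells lacking M1 receptor as counterscreen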
particulars: Fluo-8 calcium fluorescence, at 3 µM, stronger effect = higher value, scaled to maximal ATP response, vehicle zero
Hit rate of the full screen: of about 360,000 compounds, about 1,700 (0.47%) were called active. What follows is part of a selection rich in actives, with near analogues and random picks from the rest.
recorded-endpoint: activation (%)
The figure you give is taken to be in %; do not add the unit.

(Q) Give the reported value of activation for this record: COc1cc(OC)c(N2CC(C(=O)Nc3cc(Cl)ccc3N3CCOCC3)CC2=O)cc1Cl (centres undefined)
(A) 4.62

(Q) Give the reported value of activation for this record: COc1ccc(-n2c(Cc3cccn3C)nnc2SCC(=O)Nc2cc(C)cc(C)c2)cc1
(A) -0.02

(Q) Give the reported value of activation for this record: COC(=O)c1cc(C(=O)OCC(=O)Nc2cc(C)on2)cc([N+](=O)[O-])c1
(A) 0.23

(Q) Give the reported value of activation for this record: CCOC(=O)N1CCN(C(=O)c2ccc3c(c2)N(Cc2ccc(C)cc2)CCS3)CC1
(A) 1.01

(Q) Give the reported value of activation for this record: CN(c1ccc(OCC(=O)NC2=NCCS2)cc1)S(=O)(=O)c1ccc(F)cc1
(A) 6.36

(Q) Give the reported value of activation for this record: CCSCc1nc(N)nc(NCCc2ccccc2)n1
(A) 15.5

(Q) Give the reported value of activation for this record: COc1ccc(Cl)cc1S(=O)(=O)N1CCC(O)(c2ccc(Cl)cc2)CC1
(A) 0.66

(Q) Give the reported value of activation for this record: OC(CNCCc1ccc(Cl)cc1Cl)COc1ccccc1 (centres undefined)
(A) 16.2

(Q) Give the reported value of activation for this record: OCCN1CCN(c2ncnc3c2ncn3[C@H]2CN(Cc3ccco3)C[C@@H](CO)O2)CC1
(A) 0.92

(Q) Give the reported value of activation for this record: Cc1oc2nc(SCC(=O)Nc3ccc(S(N)(=O)=O)cc3)nc(NC(=O)c3ccccc3)c2c1C
(A) 0.44

(Q) Give the reported value of activation for this record: O=C(NC1CC1)C1=C[C@H](c2c[nH]c3ccccc23)C[C@H](OCc2ccc(CO)cc2)O1
(A) -0.26

(Q) Give the reported value of activation for this record: Cc1ccccc1NC(=S)NC(=O)Cc1ccc(Cl)cc1
(A) 21.2

(Q) Give the reported value of activation for this record: O=C1CCC[C@@H]2CC(N3CCCCC3)C[C@@H]3CCN1[C@H]23 (some centres undefined)
(A) 0.27

(Q) Give the reported value of activation for this record: S=C1Nc2cc(Cl)ccc2Sc2ccccc21
(A) 1.17

(Q) Give the reported value of activation for this record: COc1ccc(CCNC(=O)C(=O)NCC2CCNCC2)cc1OC
(A) 1.91

(Q) Give the reported value of activation for this record: Cc1cc(=O)n2nc(N3CCCC(C(=O)NCc4ccc(Cl)cc4)C3)sc2n1 (centres undefined)
(A) 0.13

(Q) Give the reported value of activation for this record: CSc1sc(C)cc1C1C(C#N)=C(N)N(c2cccnc2)C2=C1C(=O)CCC2 (centres undefined)
(A) 0.25

(Q) Give the reported value of activation for this record: COc1ccc(Nc2ncnc3sc(-c4ccccc4)cc23)c(OC)c1
(A) 17.4

(Q) Give the reported value of activation for this record: COc1cc(OC)cc(C(=O)OCC(=O)Nc2sccc2C(N)=O)c1
(A) 9.07

(Q) Give the reported value of activation for this record: CCN1C(=NCC(C)C)N[C@@H](CCc2ccccc2)[C@H](C(=O)NCC(C)C)[C@H]1C
(A) 0.45

(Q) Give the reported value of activation for this record: O=C(/C=C/c1c(Cl)cccc1Cl)NCc1ccccc1
(A) 0.05

(Q) Give the reported value of activation for this record: O=C(Cc1ccc(Cl)cc1)NC(=S)Nc1ccccc1O
(A) 29.2

(Q) Give the reported value of activation for this record: CC(C)(C)C(=O)NNC(=O)c1ccc(Oc2cc(Cl)cc(Cl)c2)o1
(A) 0.25

(Q) Give the reported value of activation for this record: O=C(/C=C/c1c(F)cccc1Cl)Nc1nn[nH]n1
(A) 22

(Q) Give the reported value of activation for this record: Cc1ccccc1Nc1nc(N)nc(CSc2ccccc2)n1
(A) 0.45

(Q) Give the reported value of activation for this record: O=C(Cn1ccc([N+](=O)[O-])n1)NCc1cccs1
(A) 0.12

(Q) Give the reported value of activation for this record: O=C(Nc1cc(Cl)ccc1N1CCOCC1)c1ccc(N2CCCC2=O)cc1
(A) 1.09

(Q) Give the reported value of activation for this record: CC(=O)Oc1ccc(Cn2c(C)c(C(=O)NCc3ccc(C#N)cc3)sc2=O)cc1
(A) 31.7

(Q) Give the reported value of activation for this record: COc1ccc(CN2C(=O)C(CC(=O)NC3CCCCC3)CC(C(=O)N3CCOCC3)=C2C)cc1 (centres undefined)
(A) 0.65

(Q) Give the reported value of activation for this record: COc1cc(OC)c(-n2cc(-c3ccc(Cl)cc3)[nH]c2=O)cc1Cl
(A) 25.2

(Q) Give the reported value of activation for this record: CC(C)(C)S(=O)(=O)N1Cc2cc(CO)cc(CCO)c2[C@H]1CCO
(A) 0.36

(Q) Give the reported value of activation for this record: CC(=O)Nc1c(-c2ccc(C)cc2)nc2ccc(Cl)cn12
(A) -0.07

(Q) Give the reported value of activation for this record: Cc1ccc(S(=O)(=O)n2cccc2CO)cc1
(A) -0.4

(Q) Give the reported value of activation for this record: Cc1c(C(=O)NCc2ccc(C#N)cc2)sc(=O)n1Cc1ccc(C(=O)N(C)C)cc1
(A) -0.19

Sourced from PubChem BioAssay AID602248
